Provenance of the data: the kinase profiling compilation of Christmann-Franck et al. (2016)

residual activity by entry:
Target: ACVRL1 (human) (UniProt P37023)
Sequence (P37023 whole entry, looked up): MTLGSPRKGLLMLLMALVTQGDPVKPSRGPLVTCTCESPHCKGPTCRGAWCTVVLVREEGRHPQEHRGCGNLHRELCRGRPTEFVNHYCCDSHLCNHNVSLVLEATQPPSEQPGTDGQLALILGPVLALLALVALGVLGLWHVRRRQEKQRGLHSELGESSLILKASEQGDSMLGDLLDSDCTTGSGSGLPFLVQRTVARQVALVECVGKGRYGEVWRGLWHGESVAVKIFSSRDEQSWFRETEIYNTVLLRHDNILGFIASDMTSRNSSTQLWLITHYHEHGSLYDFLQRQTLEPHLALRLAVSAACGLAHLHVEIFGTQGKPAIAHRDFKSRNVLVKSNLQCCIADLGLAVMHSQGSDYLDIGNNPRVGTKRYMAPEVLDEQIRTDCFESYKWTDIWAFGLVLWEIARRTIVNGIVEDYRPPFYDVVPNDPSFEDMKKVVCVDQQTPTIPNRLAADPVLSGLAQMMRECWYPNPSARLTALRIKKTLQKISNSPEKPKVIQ
Experiment: radiometric filter-binding kinase assay, Kinase HotSpot
Settings: compound 0.5 µM; ATP 10 µM
Kindly answer with a numeric value in %, unit omitted.

{"columns": ["cpd-smiles", "units-symbol", "residual activity"],
 "data": [
  ["COc1cc2ncnc(Nc3ccc(OCc4ccccc4)cc3)c2cc1OC", "%", 102],
  ["CC(C)(C)c1cc(C=C(C#N)C#N)cc(Br)c1O", "%", 105],
  ["O=C1c2ccccc2-c2nc3nnnn3nc21", "%", 105],
  ["CN(C)S(=O)(=O)c1ccc2c(c1)/C(=C/c1cc3c([nH]1)CCCC3)C(=O)N2", "%", 102],
  ["COc1ccc(Cl)cc1NC(=O)Nc1cc(C)nc2ccccc12", "%", 98.6]
]}

Query for ACVRL1 (human) (UniProt P37023): what residual activity does the record show for `Ic1cccc(CSc2nnc(-c3ccncc3)o2)c1` ? 103

Query for ACVRL1 (human) (UniProt P37023): what residual activity does the record show for `COc1ccc(C(=O)Nc2sc3c(c2C(N)=O)CCCC3)cc1OC` ? 110

Query for ACVRL1 (human) (UniProt P37023): what residual activity does the record show for `NC(=O)c1cccc(-c2cc(Nc3ccc(OC(F)(F)F)cc3)ncn2)c1` ? 99.2

Query for ACVRL1 (human) (UniProt P37023): what residual activity does the record show for `Cc1nc(-c2ccccc2)c(-c2ccncc2)o1` ? 95.9

Query for ACVRL1 (human) (UniProt P37023): what residual activity does the record show for `O=C1NC(=O)c2c1c1c3ccccc3[nH]c1n1cncc21` ? 109

Query for ACVRL1 (human) (UniProt P37023): what residual activity does the record show for `N#Cc1c[nH]c2c[nH]/c(=N\Cc3cccnc3)cc2/c1=N\c1ccc(F)c(Cl)c1` ? 96.9

Query for ACVRL1 (human) (UniProt P37023): what residual activity does the record show for `Fc1ccc(-c2nc3n(c2-c2ccncc2)CCS3)cc1` ? 97.9

Query for ACVRL1 (human) (UniProt P37023): what residual activity does the record show for `O=C1Nc2ccc(Br)cc2/C1=C\c1cc2c([nH]1)CCCC2` ? 103

Query for ACVRL1 (human) (UniProt P37023): what residual activity does the record show for `O=C1C(Cl)=C(N2C(=O)CCC2=O)C(=O)c2ccccc21` ? 105

Query for ACVRL1 (human) (UniProt P37023): what residual activity does the record show for `c1ccc2c(-c3ccncc3)c[nH]c2c1` ? 100

====

Target: FGFR1 (human) (UniProt P11362)
Sequence (P11362 whole entry, looked up): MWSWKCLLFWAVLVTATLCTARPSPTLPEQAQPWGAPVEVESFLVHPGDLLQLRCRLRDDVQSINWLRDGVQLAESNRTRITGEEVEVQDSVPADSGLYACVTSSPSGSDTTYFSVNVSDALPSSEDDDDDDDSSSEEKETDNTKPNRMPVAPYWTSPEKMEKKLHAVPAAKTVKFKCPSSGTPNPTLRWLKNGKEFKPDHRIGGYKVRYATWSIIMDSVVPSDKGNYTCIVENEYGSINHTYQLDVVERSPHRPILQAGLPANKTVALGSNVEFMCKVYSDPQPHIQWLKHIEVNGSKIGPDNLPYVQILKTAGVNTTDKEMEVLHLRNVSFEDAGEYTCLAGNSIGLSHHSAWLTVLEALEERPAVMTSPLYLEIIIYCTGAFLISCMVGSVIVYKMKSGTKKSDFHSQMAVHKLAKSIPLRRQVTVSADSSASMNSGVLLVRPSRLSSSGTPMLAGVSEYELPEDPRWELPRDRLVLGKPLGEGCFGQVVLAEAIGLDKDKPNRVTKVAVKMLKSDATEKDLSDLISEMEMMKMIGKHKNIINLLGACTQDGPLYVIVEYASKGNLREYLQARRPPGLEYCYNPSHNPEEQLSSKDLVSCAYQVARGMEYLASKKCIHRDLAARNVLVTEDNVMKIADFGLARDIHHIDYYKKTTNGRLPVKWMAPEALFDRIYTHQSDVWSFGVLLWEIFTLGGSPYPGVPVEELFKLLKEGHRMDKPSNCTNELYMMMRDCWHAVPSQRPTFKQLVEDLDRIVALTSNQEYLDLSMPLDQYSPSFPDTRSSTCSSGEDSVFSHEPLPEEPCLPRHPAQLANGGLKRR
Experiment: radiometric filter-binding kinase assay, Kinase HotSpot
Conditions: compound 0.5 µM; ATP 10 µM
assay-readout: residual activity (%)
Kindly answer with a numeric value in %, unit omitted.

Below, each entry is followed by its recorded residual activity result.
{"columns": ["cpd-smiles", "residual activity [%]"],
 "data": [
  ["CN(C)CCCn1cc(C2=C(c3c[nH]c4ccccc34)C(=O)NC2=O)c2ccccc21", 74.1],
  ["CN(C)c1ccc(/C=C2\\C(=O)Nc3ccccc32)cc1", 92]
]}

Entry `COc1ccc2c(c1)/C(=C/c1cnc[nH]1)C(O)=N2` : reported residual activity = ? 73.2

Entry `Cc1nc(-c2ccccc2)c(-c2ccncc2)o1` : reported residual activity = ? 90.9

Entry `O=C1C(Cl)=C(N2C(=O)CCC2=O)C(=O)c2ccccc21` : reported residual activity = ? 99.5

Entry `COc1cc2ncnc(Nc3ccc(Oc4ccccc4)cc3)c2cc1OC` : reported residual activity = ? 85

Entry `CC(C)(C)c1cc(C=C(C#N)C#N)cc(Br)c1O` : reported residual activity = ? 95.9
